experimental_target: Shiga toxin 1 (Stx1) (Escherichia coli O157:H7) (UniProt P08026)
Sequence (P08026 23-315): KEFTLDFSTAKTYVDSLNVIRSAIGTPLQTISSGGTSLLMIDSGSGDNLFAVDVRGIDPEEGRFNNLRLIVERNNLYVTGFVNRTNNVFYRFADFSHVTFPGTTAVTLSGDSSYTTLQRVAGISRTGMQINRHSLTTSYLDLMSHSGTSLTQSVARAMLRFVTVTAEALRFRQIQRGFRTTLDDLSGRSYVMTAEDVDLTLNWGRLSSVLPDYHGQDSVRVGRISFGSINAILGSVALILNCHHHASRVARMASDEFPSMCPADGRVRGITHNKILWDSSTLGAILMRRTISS
assay_method_text: SPR, Stx1 immobilised
For each record, write down the corresponding pKd.
In textbook form, pKd equals minus log to base ten of the concentration in mol/L.

May I ask what pKd has been recorded for Stx-A4 (VHH) VHH: QVQLVESGGGLVQPGGSLRLSCAASGFTLGSYHIGWFRHPPGKEREGTSCLSSRGDYTKYAEAVKGRFTISRDNTKSTVYLQMNNLKPEDTGIYVCAAIRPVLSDSHCTLAARYNYWGQGTQVTVSS ?
8.14

Ok, now A9/D4 heterodimer VNA (designed binder) QVQLVETGGGLAQAGDSLRLSCVEPGRTLDMYAMGWIRQAPGEEREFVASISGVGGSPRYADSVKGRFTISKDNTKSTIWLQMNSLKPEDTAVYYCAAGGDIYYGGSPQWRGQGTRVTVSSEPKTPKPQGGGGSGGGGSGGGGSQVQLVESGGGLVQAGGSLRLSCAASGRINGDYAMGWFRQAPGEEREFVAVNSWIGGSTYYTDSVKGRFTLSRDNAKNTLSLQMNSLKPEDTAVYYCAAGHYTDFPTYFKEYDYWGQGTQVTVSSEPKTPKPQ
8.92

Same again, this time with Stx-A5 (VHH) VHH: QVQLVESGGGLVQPGGSLRLSCAALEFTLEDYAIAWFRQAPGKEREGVSCISKSGVTKYTDSVKGRFTVARDNAKSTVILQMNNLRPEDTAVYNCAAVRPVFVDSVCTLATRYTYWGEGTQVTVSS
7.90
